system: Enterococcus faecalis; test: In vitro antibacterial activity against Enterococcus faecalis; format: functional
READOUT: MIC (µg/mL)
Dear colleague, please return just the value in µg/mL, with no unit written.

Challenge: Read off the recorded MIC for C=C(NC(=O)c1csc(-c2nc3c(cc2O)-c2nc(cs2)C(=O)N[C@@H]([C@@H](C)O)C(=O)N/C(=C(\C)OC)c2nc(cs2)C(=O)N[C@@H]2c4nc(cs4)C(=O)N[C@@H](COC(=O)c4c5c6c(cccc6n4OCP(=O)(OCC)OCC)COC(=O)[C@@H](O[C@H]4C[C@](C)(O)[C@H](N(C)C)[C@H](C)O4)[C@H]2OC5)c2nc-3cs2)n1)C(N)=O
Response given: 0.03

* * *

system: Streptococcus pneumoniae; experiment: In vitro antibacterial activity against Streptococcus pneumoniae; assay type: functional
READOUT: MIC (µg/mL)
Dear colleague, please return just the value in µg/mL, with no unit written.

Known MIC results, listed for orientation:
>>> recorded_result("C=C(NC(=O)c1csc(-c2nc3c(cc2OCCN2CCOCC2)-c2nc(cs2)C(=O)N[C@@H]([C@@H](C)O)C(=O)N/C(=C(\\C)OC)c2nc(cs2)C(=O)N[C@@H]2c4nc(cs4)C(=O)N[C@@H](COC(=O)c4c5c6c(cccc6n4OCCN4CCOCC4)COC(=O)[C@@H](O[C@H]4C[C@](C)(O)[C@H](N(C)C)[C@H](C)O4)[C@H]2OC5)c2nc-3cs2)n1)C(N)=O")
0.03
>>> recorded_result("C=C(NC(=O)c1csc(-c2nc3c(cc2OCOP(=O)(O)O)-c2nc(cs2)C(=O)N[C@@H]([C@@H](C)O)C(=O)N/C(=C(\\C)OC)c2nc(cs2)C(=O)N[C@@H]2c4nc(cs4)C(=O)N[C@@H](COC(=O)c4c5c6c(cccc6n4OCOP(=O)(O)O)COC(=O)[C@@H](O[C@H]4C[C@](C)(O)[C@H](N(C)C)[C@H](C)O4)[C@H]2OC5)c2nc-3cs2)n1)C(N)=O")
0.015
>>> recorded_result("C=C(NC(=O)c1csc(-c2nc3c(cc2OCCCS(=O)(=O)O)-c2nc(cs2)C(=O)N[C@@H]([C@@H](C)O)C(=O)N/C(=C(\\C)OC)c2nc(cs2)C(=O)N[C@@H]2c4nc(cs4)C(=O)N[C@@H](COC(=O)c4c5c6c(cccc6n4OCCCS(=O)(=O)O)COC(=O)[C@@H](O[C@H]4C[C@](C)(O)[C@H](N(C)C)[C@H](C)O4)[C@H]2OC5)c2nc-3cs2)n1)C(N)=O")
0.5
>>> recorded_result("C=C(NC(=O)c1csc(-c2nc3c(cc2O)-c2nc(cs2)C(=O)N[C@@H]([C@@H](C)O)C(=O)N/C(=C(\\C)OC)c2nc(cs2)C(=O)N[C@@H]2c4nc(cs4)C(=O)N[C@@H](COC(=O)c4c5c6c(cccc6n4OCCCN)COC(=O)[C@@H](O[C@H]4C[C@](C)(O)[C@H](N(C)C)[C@H](C)O4)[C@H]2OC5)c2nc-3cs2)n1)C(N)=O")
0.06
>>> recorded_result("C=C(NC(=O)c1csc(-c2nc3c(cc2OCCCS(=O)(=O)O)-c2nc(cs2)C(=O)N[C@@H]([C@@H](C)O)C(=O)N/C(=C(\\C)OC)c2nc(cs2)C(=O)N[C@@H]2c4nc(cs4)C(=O)N[C@@H](COC(=O)c4c5c6c(cccc6n4O)COC(=O)[C@@H](O[C@H]4C[C@](C)(O)[C@H](N(C)C)[C@H](C)O4)[C@H]2OC5)c2nc-3cs2)n1)C(N)=O")
0.25

Now examine the next entry.
Challenge: Name the value of MIC reported for C=C(NC(=O)c1csc(-c2nc3c(cc2O)-c2nc(cs2)C(=O)N[C@@H]([C@@H](C)O)C(=O)N/C(=C(\C)OC)c2nc(cs2)C(=O)N[C@@H]2c4nc(cs4)C(=O)N[C@@H](COC(=O)c4c5c6c(cccc6n4OC)COC(=O)[C@@H](O[C@H]4C[C@](C)(O)[C@H](N(C)C)[C@H](C)O4)[C@H]2OC5)c2nc-3cs2)n1)C(N)=O when tested on Streptococcus pneumoniae.
Response given: 0.003
